MEASUREMENT_DESCRIPTION: yeast 75Q aggregation reduction – 75Q-TubU reporter (AID 1593)
SETUP_CONDITIONS: Yeast 75Q polyglutamine aggregation reporter
Each entry below carries its reported score.
Reply briefly: the number, and no unit.

Incoming: Tell me measured score for `O=C(O)c1cccnc1Nc1cccc(C(F)(F)F)c1` please.
Outgoing: -0.01

Incoming: Tell me measured score for `Nc1ccc(C(=O)O)c(O)c1` please.
Outgoing: 1.08

Incoming: Tell me measured score for `CC(=O)N(O)CCCCCNC(=O)CCC(=O)N(O)CCCCCNC(=O)CCC(=O)N(O)CCCCCN` please.
Outgoing: 0.93

Incoming: Tell me measured score for `CN1CCN(CCCN2c3ccccc3Sc3ccc(Cl)cc32)CC1` please.
Outgoing: 1.36

Incoming: Tell me measured score for `CC(=O)OCC1=C(C(=O)O)N2C(=O)[C@@H](NC(=O)Cc3cccs3)[C@H]2SC1` please.
Outgoing: 1.29

Incoming: Tell me measured score for `CCCC(C(=O)OCCN(CC)CC)(c1ccccc1)c1ccccc1` please.
Outgoing: 1.32

Incoming: Tell me measured score for `CC1=C(C(=O)O)N2C(=O)[C@@H](NC(=O)[C@H](N)c3ccc(O)cc3)[C@H]2SC1` please.
Outgoing: 1.38

Incoming: Tell me measured score for O=C(O)CCCCC1CCSS1 (stereo unspecified) please.
Outgoing: 0.61

Incoming: Tell me measured score for `CS(=O)(=O)Nc1ccc([N+](=O)[O-])cc1Oc1ccccc1` please.
Outgoing: 0.85

Incoming: Tell me measured score for `CN1CCN(CC(=O)N2c3ccccc3C(=O)Nc3cccnc32)CC1` please.
Outgoing: 1.57

As a next step, examine the compound that follows.
Incoming: Tell me measured score for `NNc1nncc2ccccc12` please.
Outgoing: 1.45

---

Each entry below carries its reported z-score.
MEASUREMENT_DESCRIPTION: MELAS cybrid and Rieske KO viability enhancers – cell-based, MELAS cybrids, Rieske KO mouse fibroblasts, CellTiter-Glo, primary screen (AID 1508586);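 further: z relative to plate mean and SD of compound and empty wells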
SETUP_CONDITIONS: Rieske KO mouse fibroblast survival, low glucose, CellTiter-Glo 72 h
Reply briefly: the number, and no unit.

Incoming: Tell me measured z-score for `Cc1cc(=O)[nH]c(=S)[nH]1` please.
Outgoing: -0.199

Incoming: Tell me measured z-score for `Cc1ccsc1/C=C/C1=NCCCN1C` please.
Outgoing: 0.242

Incoming: Tell me measured z-score for `NS(=O)(=O)c1cc2c(cc1Cl)NC(CSCc1ccccc1)=NS2(=O)=O` please.
Outgoing: -0.312

Incoming: Tell me measured z-score for `C/C=C/c1ccc(OC)cc1` please.
Outgoing: -1.37

Others:
Incoming: Tell me measured z-score for `COc1cc2c(N3CCN(C(=O)Nc4ccc(OC(C)C)cc4)CC3)ncnc2cc1OCCCN1CCCCC1` please.
Outgoing: 0.343

Incoming: Tell me measured z-score for `CC(=O)O[C@]1(C(C)=O)CC[C@H]2[C@@H]3C=C(Cl)C4=CC(=O)CC[C@]4(C)[C@H]3CC[C@@]21C` please.
Outgoing: 0.517

Incoming: Tell me measured z-score for `Nc1c2ccccc2nc2ccccc12` please.
Outgoing: -1.96

Incoming: Tell me measured z-score for C=CCSCC1Nc2cc(Cl)c(S(N)(=O)=O)cc2S(=O)(=O)N1 (configuration not stated) please.
Outgoing: -0.472

Incoming: Tell me measured z-score for `CN1CCC(=C2c3ccccc3Sc3ccccc32)CC1` please.
Outgoing: 0.395

Incoming: Tell me measured z-score for `CC(=O)[C@]1(O)Cc2c(O)c3c(c(O)c2[C@@H](O[C@H]2C[C@H](N)[C@H](O)[C@H](C)O2)C1)C(=O)c1ccccc1C3=O` please.
Outgoing: -0.996

Incoming: Tell me measured z-score for `O=C(O)CCCC[C@@H]1SC[C@@H]2NC(=O)N[C@@H]21` please.
Outgoing: -0.214

Incoming: Tell me measured z-score for `CC1=C(C(=O)O)N2C(=O)[C@@H](NC(=O)[C@H](N)c3ccc(O)cc3)[C@H]2SC1` please.
Outgoing: 0.13

Incoming: Tell me measured z-score for `COc1cc(NS(=O)(=O)c2ccc(N)cc2)ncn1` please.
Outgoing: 0.095

Incoming: Tell me measured z-score for `CC(=O)OCC(=O)[C@@]1(O)[C@H](C)C[C@H]2[C@@H]3CCC4=CC(=O)C=C[C@]4(C)[C@@]3(F)[C@@H](O)C[C@@]21C` please.
Outgoing: 0.00126

---

MEASUREMENT_DESCRIPTION: HCT116 colon cancer cell growth inhibition, primary screen, CellTiter-Glo luminescence, NPC library (AID 1117342)
SETUP_CONDITIONS: at 20 µM (top of the series)
yes (1) if inhibition of viability is below 8%. no (0) if not; exact matches included in no (0).

Answered examples (5):
Incoming: Would you kindly verify if inhibition of viability of `CCC(=O)O[C@H]1[C@H](O[C@@H]2[C@@H](C)[C@H](O[C@H]3C[C@@](C)(OC)[C@@H](O)[C@H](C)O3)[C@@H](C)C(=O)O[C@H](CC)[C@@](C)(O)[C@H](O)[C@@H](C)C(=O)[C@H](C)C[C@@]2(C)O)O[C@H](C)C[C@@H]1N(C)C` is strictly less than 8%?
Outgoing: yes (1)

Incoming: Would you kindly verify if inhibition of viability of `Cc1nc2n(c(=O)c1CCN1CCC(c3noc4cc(F)ccc34)CC1)CCC[C@H]2O` is strictly less than 8%?
Outgoing: no (0)

Incoming: Would you kindly verify if inhibition of viability of `CC1=NN(c2ccccc2)C(=O)C1` is strictly less than 8%?
Outgoing: yes (1)

Incoming: Would you kindly verify if inhibition of viability of `Nc1ncnc2c1ncn2[C@@H]1O[C@H](CO)[C@@H](O)[C@H]1O` is strictly less than 8%?
Outgoing: no (0)

Incoming: Would you kindly verify if inhibition of viability of `C[C@]12C=CC(=O)C=C1CC[C@H]1[C@@H]3C[C@@H](O)[C@](O)(C(=O)CO)[C@@]3(C)C[C@H](O)[C@@]12F` is strictly less than 8%?
Outgoing: no (0)

Others:
Incoming: Would you kindly verify if inhibition of viability of `C[C@@H]1CC[C@@]2(OC1)O[C@H]1C[C@H]3[C@@H]4CC[C@H]5C[C@@H](O)CC[C@]5(C)[C@H]4CC(=O)[C@]3(C)[C@H]1[C@@H]2C` is strictly less than 8%?
Outgoing: yes (1)

---

MEASUREMENT_DESCRIPTION: reduced SW480 viability measured with CellTiter-Glo, NPC library, primary (AID 1117343)
SETUP_CONDITIONS: CellTiter-Glo luminescence; at 20 µM (top of the series)
PROPERTY_LABEL: viability decrease (inhibition) (%)
State the answer as a number, implicitly in %.

Incoming: Tell me measured viability decrease (inhibition) for `O=c1oc2c(O)c(O)cc3c(=O)oc4c(O)c(O)cc1c4c23` please.
Outgoing: 75.1

Incoming: Tell me measured viability decrease (inhibition) for `O=C1CC2(CCCC2)CC(=O)N1CCCCN1CCN(c2ncccn2)CC1` please.
Outgoing: 20.4

Incoming: Tell me measured viability decrease (inhibition) for `Cc1ccnc2c1NC(=O)c1cccnc1N2C1CC1` please.
Outgoing: -13.1

Incoming: Tell me measured viability decrease (inhibition) for `COc1ccc(CCN2CCC(Nc3nc4ccccc4n3Cc3ccc(F)cc3)CC2)cc1` please.
Outgoing: 129

Incoming: Tell me measured viability decrease (inhibition) for `Cn1cnc2c1c(=O)[nH]c(=O)n2C` please.
Outgoing: -8.1

Others:
Incoming: Tell me measured viability decrease (inhibition) for `CN1CCC(OC(c2ccccc2)c2ccccc2)CC1` please.
Outgoing: 37.7

Incoming: Tell me measured viability decrease (inhibition) for CCC(C)n1ncn(-c2ccc(N3CCN(c4ccc(OC[C@H]5CO[C@](Cn6cncn6)(c6ccc(Cl)cc6Cl)O5)cc4)CC3)cc2)c1=O (stereo partly drawn) please.
Outgoing: 112

Incoming: Tell me measured viability decrease (inhibition) for `C#CCN(C)Cc1ccccc1` please.
Outgoing: -22.7

Incoming: Tell me measured viability decrease (inhibition) for `CCN(CC)CCOc1ccc(/C(=C(\Cl)c2ccccc2)c2ccccc2)cc1` please.
Outgoing: 124

Incoming: Tell me measured viability decrease (inhibition) for `Cc1ccc(C(=O)Nc2ccc(S(=O)(=O)O)c3cc(S(=O)(=O)O)cc(S(=O)(=O)O)c23)cc1NC(=O)c1cccc(NC(=O)Nc2cccc(C(=O)Nc3cc(C(=O)Nc4ccc(S(=O)(=O)O)c5cc(S(=O)(=O)O)cc(S(=O)(=O)O)c45)ccc3C)c2)c1` please.
Outgoing: -22.7

---

Each entry below carries its reported inhibition.
MEASUREMENT_DESCRIPTION: growth inhibition, single agents and combos, HTB85, cell-based, BGB or cisplatin IC20 combos, synergistic combos for chromothripsis tumors (AID 1671453);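 further: cells exposed for 96 hours before readout; 0% = vehicle DMSO and 100% = high DMSO killing control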
SETUP_CONDITIONS: HTB85 osteosarcoma cells, drug combinations, measured here: with BGB IC20, at 0.5 µM, stronger effect = higher value

A selection of reference data follows.
Incoming: Tell me measured inhibition for `NC(=O)NO` please.
Outgoing: -11.6%

Incoming: Tell me measured inhibition for `C[C@H]1COc2c(C3(N)CC3)c(F)cc3c(=O)c(C(=O)O)cn1c23` please.
Outgoing: -30.1%

Incoming: Tell me measured inhibition for `O=c1c(O)c(-c2ccc(O)c(O)c2)oc2cc(O)cc(O)c12` please.
Outgoing: -21.8%

Incoming: Tell me measured inhibition for `Nc1nc(=S)c2[nH]cnc2[nH]1` please.
Outgoing: 3.8%

Incoming: Tell me measured inhibition for `O=C(O)P(=O)(O)O` please.
Outgoing: -66.1%

Incoming: Tell me measured inhibition for CC(N)C12CC3CC(CC(C3)C1)C2 (stereo unspecified) please.
Outgoing: -39.8%

Incoming: Tell me measured inhibition for `Nc1[nH]c(=O)ncc1F` please.
Outgoing: -43%

Incoming: Tell me measured inhibition for `CCN1CCN(c2cc3c(cc2F)c(=O)c(C(=O)O)cn3C2CC2)CC1` please.
Outgoing: -19%

Incoming: Tell me measured inhibition for `O=c1oc2c(O)c(O)cc3c(=O)oc4c(O)c(O)cc1c4c23` please.
Outgoing: -9.05%

Incoming: Tell me measured inhibition for `Nc1nc2c(ncn2COC(CO)CO)c(=O)[nH]1` please.
Outgoing: -37.4%

As a next step, examine the molecule that follows.
Incoming: Tell me measured inhibition for `Cc1nc2ccc(CN(C)c3ccc(C(=O)N[C@@H](CCC(=O)O)C(=O)O)s3)cc2c(=O)[nH]1` please.
Outgoing: -19.6%
